- ASSAYED_SYSTEM: His-GST-TVMV-hRIPK1(1-324) (Homo sapiens)
- Sequence (Q13546 1-324): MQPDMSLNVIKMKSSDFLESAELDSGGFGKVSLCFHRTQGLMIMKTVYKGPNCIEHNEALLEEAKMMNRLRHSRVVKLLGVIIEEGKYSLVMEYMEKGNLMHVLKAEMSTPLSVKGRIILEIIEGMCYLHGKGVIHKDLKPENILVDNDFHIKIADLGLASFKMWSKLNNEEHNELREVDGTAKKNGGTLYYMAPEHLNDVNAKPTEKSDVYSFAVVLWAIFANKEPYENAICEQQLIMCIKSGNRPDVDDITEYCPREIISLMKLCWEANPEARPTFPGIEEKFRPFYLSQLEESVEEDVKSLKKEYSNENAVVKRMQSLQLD
READOUT_NAME: IC50

For each of the items listed, what is its IC50?
1. CNC(=O)c1n[nH]c2cc(-c3nc(C(=O)NCc4cc(OC(F)(F)F)ccc4F)cs3)ccc12 [Example 20]
2. CNC(=O)c1n[nH]c2cc(-c3csc(C(=O)NCC[C@@H](O)c4ccc(Cl)cc4)c3)ccc12 [Example 3]
3. CNC(=O)c1n[nH]c2cc(-c3csc(C(=O)NCCC(C)c4ccccc4)c3)ccc12 (stereo not shown) [Example 2]
4. CNC(=O)c1n[nH]c2cc(-c3nc(C)c(C(=O)NCC[C@@H](O)c4ccc(Cl)cc4)s3)ccc12 [Example 16]

Result:
["400 nM", "47 nM", "6 nM", "150 nM"]
